target: KOR (Homo sapiens, UniProt P41145); assay: Opioid secondary binding, KOR (Tables 4, 5, 8, 9); details: Opioid secondary binding activity for Formula 10 analogs; read-out: KOR, Ki
Sequence (P41145 whole entry): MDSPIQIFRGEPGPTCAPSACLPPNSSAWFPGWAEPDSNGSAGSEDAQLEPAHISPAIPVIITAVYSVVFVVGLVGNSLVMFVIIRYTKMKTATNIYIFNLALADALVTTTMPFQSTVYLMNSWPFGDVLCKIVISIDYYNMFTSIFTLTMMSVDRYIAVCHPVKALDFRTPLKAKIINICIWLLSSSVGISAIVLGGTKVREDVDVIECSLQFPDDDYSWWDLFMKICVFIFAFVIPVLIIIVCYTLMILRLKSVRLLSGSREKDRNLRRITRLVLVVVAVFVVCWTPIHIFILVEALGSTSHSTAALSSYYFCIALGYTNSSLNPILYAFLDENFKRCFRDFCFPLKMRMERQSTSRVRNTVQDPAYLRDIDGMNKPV
pKi: −log10 of the molar value.
Test Readout: pKi

[[record]]
compound = "O=C(OCc1ccccc1)C(Cc1ccccc1)NC(=O)C1CC=CC2CCN(C3CCCCC3)C(=O)C21 (mixture of isomers)"
quantitative_readout = 5.96

[[record]]
compound = "CC(c1ccccc1)N1CCC2C=CCC(C(=O)NC3CCCCC3)C2C1=O (mixture of isomers)"
quantitative_readout = 5.23

[[record]]
compound = "CC(NC(=O)C1CC=CC2CCN(CCc3ccccc3)C(=O)C21)c1ccccc1 (mixture of isomers)"
quantitative_readout = 5.46

[[record]]
compound = "O=C(Nc1ccccc1)[C@@H]1CC=C[C@@H]2CCN(CC3CCCCC3)C(=O)[C@@H]21 (racemic)"
quantitative_readout = 6.73

[[record]]
compound = "O=C(NCc1cccnc1)[C@@H]1CC=C[C@@H]2CCN(Cc3ccc(Cl)c(Cl)c3)C(=O)[C@@H]21 (racemic)"
quantitative_readout = 6.16

[[record]]
compound = "CCCCN1CC[C@H]2C=CC[C@@H](C(=O)Nc3ccc(Cl)c(C(F)(F)F)c3)[C@H]2C1=O (racemic)"
quantitative_readout = 6.72

[[record]]
compound = "O=C(NCCc1ccccc1)[C@@H]1CC=C[C@@H]2CCN(Cc3ccccc3)C(=O)[C@@H]21 (racemic)"
quantitative_readout = 6.25

[[record]]
compound = "O=C(Nc1ccc(F)c(F)c1)[C@@H]1CC=C[C@@H]2CCN(Cc3ccc(Cl)c(Cl)c3)C(=O)[C@@H]21 (racemic)"
quantitative_readout = 5.53

[[record]]
compound = "O=C(NCc1ccc(Cl)c(C(F)(F)F)c1)[C@@H]1CC=C[C@@H]2CCN(Cc3ccccc3)C(=O)[C@@H]21 (racemic)"
quantitative_readout = 6.34

[[record]]
compound = "O=C(OCc1ccccc1)C1CCCN1C(=O)C1CC=CC2CCN(Cc3ccc(Cl)cc3)C(=O)C21 (mixture of isomers)"
quantitative_readout = 5.64

[[record]]
compound = "COC(=O)C(CCSC)NC(=O)C1CC=CC2CCN(Cc3ccccc3)C(=O)C21 (mixture of isomers)"
quantitative_readout = 5.58

[[record]]
compound = "COc1ccc(NC(=O)[C@@H]2CC=C[C@@H]3CCN(C4CCCCC4)C(=O)[C@@H]32)cc1 (racemic)"
quantitative_readout = 5.75

[[record]]
compound = "COc1cccc(F)c1CN1CC[C@H]2C=CC[C@@H](C(=O)Nc3ccc(C)c(F)c3F)[C@H]2C1=O (racemic)"
quantitative_readout = 5.29

[[record]]
compound = "O=C(NCc1cccnc1)[C@@H]1CC=C[C@@H]2CCN(C3CCCCC3)C(=O)[C@@H]21 (racemic)"
quantitative_readout = 6.26

[[record]]
compound = "O=C([C@@H]1CC=C[C@@H]2CCN(C3CC3)C(=O)[C@@H]21)N1CCN(c2ccccc2)CC1 (racemic)"
quantitative_readout = 5.50

[[record]]
compound = "O=C(NCc1ccc(Cl)c(C(F)(F)F)c1)[C@@H]1CC=C[C@@H]2CCN(CCc3ccccc3)C(=O)[C@@H]21 (racemic)"
quantitative_readout = 6.50

[[record]]
compound = "O=C(Nc1ccc(I)cc1)[C@@H]1CC=C[C@@H]2CCN(Cc3ccccc3)C(=O)[C@@H]21 (racemic)"
quantitative_readout = 5.55

[[record]]
compound = "COc1ccc(CNC(=O)[C@@H]2CC=C[C@@H]3CCN(C4CCCCC4)C(=O)[C@@H]32)cc1 (racemic)"
quantitative_readout = 5.57

[[record]]
compound = "O=C(Nc1ccc(Cl)cc1)[C@@H]1CC=C[C@@H]2CCN(Cc3ccccc3)C(=O)[C@@H]21 (racemic)"
quantitative_readout = 5.30

[[record]]
compound = "O=C(Nc1ccccc1)[C@@H]1CC=C[C@@H]2CCN(C3CC3)C(=O)[C@@H]21 (racemic)"
quantitative_readout = 5.85

[[record]]
compound = "CCCCN1CC[C@H]2C=CC[C@@H](C(=O)Nc3ccc(OC)cc3)[C@H]2C1=O (racemic)"
quantitative_readout = 5.30

[[record]]
compound = "O=C(Nc1ccc(Cl)cc1Cl)[C@@H]1CC=C[C@@H]2CCN(C3CCCCC3)C(=O)[C@@H]21 (racemic)"
quantitative_readout = 6.30

[[record]]
compound = "Cc1ccc(NC(=O)[C@@H]2CC=C[C@@H]3CCN(Cc4ccccc4)C(=O)[C@@H]32)cc1Cl (racemic)"
quantitative_readout = 5.59

[[record]]
compound = "O=C(Nc1ccc([N+](=O)[O-])c(C(F)(F)F)c1)[C@@H]1CC=C[C@@H]2CCN(C3CCCCC3)C(=O)[C@@H]21 (racemic)"
quantitative_readout = 5.29

[[record]]
compound = "CC(c1ccccc1)N1CCC2C=CCC(C(=O)Nc3ccccc3)C2C1=O (mixture of isomers)"
quantitative_readout = 5.32

[[record]]
compound = "O=C(Nc1ccc(Cl)cc1Cl)[C@@H]1CC=C[C@@H]2CCN(CCc3ccccc3)C(=O)[C@@H]21 (racemic)"
quantitative_readout = 5.19

